- Assay target: HLA-A*02:01
- Assay notes: IEDB peptide-MHC binding, purified MHC/competitive/radioactivity; bounds were set here for any values at or beyond the usual limits of such assays
- Conditions used: source organism: Vaccinia virus WR
pIC50: −log10 of the molar value.
Please mark t if the recorded pIC50 is equal to or greater than 7, and f if it falls below.

Macromolecule sequence | Classification
WLLGFIKCI | t
LAERFCTEV | f
EQEFLTAAL | t
TIDAINKCV | f
ALYSPPLISI | f
VLTILYYGA | f

---

- Assay target: HLA-A*02:02
- Assay notes: IEDB peptide-MHC binding, purified MHC/competitive/radioactivity; bounds were set here for any values at or beyond the usual limits of such assays
- Conditions used: source organism: Vaccinia virus WR
Cut-off 600 nM on IC50: below means Met, at or above means Not met.

Macromolecule sequence | Classification
ETLFGSYIT | Not met
LALTDVEKRI | Met
HLENDKIEDL | Met
FTSDYPFYV | Met
FLARKGIDT | Not met
VLALYSPPL | Met
GLSASDVDM | Met
VVYHDDDNTT | Not met
IMAFILGII | Met
GLYIPGTSV | Met
CQCTVQEFI | Not met
SVDVDIYDAV | Met
LAELLEMKYA | Not met
LTNAISSRV | Met
GIFVDTMSI | Not met
